assay: binders of probe aHhip on microarray, primary screen, stem cell growth factor project, biochemical, small-molecule microarray, fluorescence 635/667 (AID 1087); conditions: higher = more signal;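 also: score merges spot fluorescence at 667nm with spot signal to noise ratio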
Measured composite z-score by item
Readout Label: composite z-score

{"Compound": "CCOC(=O)[C@H](Cc1ccccc1)NC(=O)CCC1CC(OC(=O)NCc2cccc3ccccc23)CC2(CCCC(COC(=O)NCc3ccccc3)O2)O1 (some centres undefined)", "Readout Label": "composite z-score", "Experimental Value": -0.303}
{"Compound": "CC(C)C[C@H](NC(=O)CCC1CC(OC(=O)NCc2cccc3ccccc23)CC2(CCCC(COC(=O)NCc3ccccc3)O2)O1)C(=O)NCC(c1ccccc1)c1ccccc1 (some centres undefined)", "Readout Label": "composite z-score", "Experimental Value": 0.238}
{"Compound": "COC(=O)CC=C[C@H](C)[C@@H](OCc1cccc(Br)c1)[C@@H](C)[C@H](OC)C1CCCCC1", "Readout Label": "composite z-score", "Experimental Value": 0.0024}
{"Compound": "CC(C)=CCCC(C)=CCON=C1C[C@@H](O)[C@@H](O)[C@@H]2[C@@H]3C(=O)N(c4cccc(Oc5ccccc5)c4)C(=O)[C@@H]3CC[C@@H]12", "Readout Label": "composite z-score", "Experimental Value": -0.0994}
